Data origin, for the record: patent US20100120789A1

# ASSAYED TARGET: Human 11β-HSD1 (Homo sapiens, UniProt P28845)
# Sequence (P28845 whole entry): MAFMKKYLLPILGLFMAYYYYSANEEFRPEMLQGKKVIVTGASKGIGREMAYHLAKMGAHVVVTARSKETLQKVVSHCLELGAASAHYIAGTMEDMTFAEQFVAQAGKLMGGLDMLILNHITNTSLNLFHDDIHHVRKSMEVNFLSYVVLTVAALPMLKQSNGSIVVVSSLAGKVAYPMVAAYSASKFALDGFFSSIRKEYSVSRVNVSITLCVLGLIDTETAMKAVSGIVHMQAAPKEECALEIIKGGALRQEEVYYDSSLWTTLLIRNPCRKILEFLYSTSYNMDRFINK
# EXPERIMENT SUMMARY: 11β-HSD1 HEK assay (whole HEK 293 cells stably transfected with HSD11B1, SPA)
# Assay type: cell-based
# Set-up: expressed in transfected cells; host or cells: HEK 293
# CONDITION NOTES: HEK293, read-out: % INHIBITION of Human 11 β-HSD1 at 10 μM (HEK)
Assignment: determine reported inhibition at 10 µM for the given compounds.

Q. I'd like to know its inhibition at 10 µM. The compound in question is CCCc1ccc(S(=O)(=O)NCC23CC4CC(CC(C4)C2)C3)cc1
A. 20 to 60%

Q. I'd like to know its inhibition at 10 µM. The compound in question is O=C(COc1cc(Cl)ccc1Cl)C12CC3CC(CC(C3)C1)C2
A. > 60%

Q. I'd like to know its inhibition at 10 µM. The compound in question is O=C(N1CCc2sccc2C1)C12CC3CC(CC(C3)C1)C2
A. > 60%

Q. I'd like to know its inhibition at 10 µM. The compound in question is Cc1ccc(Cc2noc(C34CC5CC(CC(C5)C3)C4)n2)cc1
A. 20 to 60%

Q. I'd like to know its inhibition at 10 µM. The compound in question is CN(Cc1cccs1)C(=O)[C@H]1CC2C=CC1C2 (stereo partly drawn)
A. > 60%

Q. I'd like to know its inhibition at 10 µM. The compound in question is O=C(CC12CC3CC(CC(C3)C1)C2)NCc1ccco1
A. > 60%

Q. I'd like to know its inhibition at 10 µM. The compound in question is CC(C)(C)CC(=O)NCCc1cccs1
A. 20 to 60%

Q. I'd like to know its inhibition at 10 µM. The compound in question is COc1ccc(OCC(=O)C23CC4CC(CC(C4)C2)C3)cc1OC
A. > 60%

Q. I'd like to know its inhibition at 10 µM. The compound in question is CC12CC3CC(C)(C1)CC(C(=O)NCc1cccs1)(C3)C2
A. > 60%

Q. I'd like to know its inhibition at 10 µM. The compound in question is Cc1nc2c(NC(=O)CC34CC5CC(CC(C5)C3)C4)c(C)ccc2s1
A. < 20%

Q. I'd like to know its inhibition at 10 µM. The compound in question is O=C(NC12CC3CC(CC(C3)C1)C2)OCc1cccs1
A. > 60%

Q. I'd like to know its inhibition at 10 µM. The compound in question is O=C(COCc1cccs1)C12CC3CC(CC(C3)C1)C2
A. > 60%

Q. I'd like to know its inhibition at 10 µM. The compound in question is Cc1nc2c(Cl)c(NC(=O)C34CC5CC(CC(C5)C3)C4)ccc2s1
A. > 60%

Q. I'd like to know its inhibition at 10 µM. The compound in question is CN(Cc1cccs1)C(=O)CC12CC3CC(CC(C3)C1)C2
A. > 60%

Q. I'd like to know its inhibition at 10 µM. The compound in question is O=C(NCCc1cccnc1)C12CC3CC(CC(C3)C1)C2
A. < 20%

Q. I'd like to know its inhibition at 10 µM. The compound in question is O=C(CC12CC3CC(CC(C3)C1)C2)NCc1cc2ccccc2s1
A. 20 to 60%

Q. I'd like to know its inhibition at 10 µM. The compound in question is CC(C)(C)C(=O)NCCc1cccs1
A. 20 to 60%

Q. I'd like to know its inhibition at 10 µM. The compound in question is CN(Cc1cccs1)C(=O)C1CCCCC1
A. > 60%

Q. I'd like to know its inhibition at 10 µM. The compound in question is O=C(NCc1cccs1)C1CCCCC1
A. 20 to 60%

Q. I'd like to know its inhibition at 10 µM. The compound in question is Cc1cnc(CNC(=O)C23CC4CC(CC(C4)C2)C3)cn1
A. 20 to 60%

Q. I'd like to know its inhibition at 10 µM. The compound in question is CC(C(=O)NCCc1cccs1)(c1ccccc1)c1ccccc1
A. < 20%

Q. I'd like to know its inhibition at 10 µM. The compound in question is O=C(NCCc1cccs1)[C@H]1CC2C=CC1C2 (stereo partly drawn)
A. 20 to 60%

Q. I'd like to know its inhibition at 10 µM. The compound in question is O=S(=O)(NC12CC3CC(CC(C3)C1)C2)c1ccc(-c2ccccc2)cc1
A. 20 to 60%

Q. I'd like to know its inhibition at 10 µM. The compound in question is O=C(CSc1cc(Cl)ccc1Cl)C12CC3CC(CC(C3)C1)C2
A. > 60%

Q. I'd like to know its inhibition at 10 µM. The compound in question is O=C(CNc1ccc(Cl)cc1)C12CC3CC(CC(C3)C1)C2
A. > 60%

Q. I'd like to know its inhibition at 10 µM. The compound in question is O=C(CC12CC3CC(CC(C3)C1)C2)NCc1cccs1
A. > 60%

Q. I'd like to know its inhibition at 10 µM. The compound in question is O=C(C[S+]([O-])c1cc(Cl)ccc1Cl)C12CC3CC(CC(C3)C1)C2 (stereo not drawn)
A. > 60%

Q. I'd like to know its inhibition at 10 µM. The compound in question is O=S(=O)(Cc1cccc(Cl)c1)NC12CC3CC(CC(C3)C1)C2
A. < 20%

Q. I'd like to know its inhibition at 10 µM. The compound in question is O=C(NCCc1c[nH]c2ccccc12)C12CC3CC(CC(C3)C1)C2
A. > 60%

Q. I'd like to know its inhibition at 10 µM. The compound in question is CN(Cc1cccs1)C(=O)C12CC3CC(CC(C3)C1)C2
A. > 60%

Q. I'd like to know its inhibition at 10 µM. The compound in question is CN(Cc1cccs1)C(=O)C1(C)CC1
A. < 20%

Q. I'd like to know its inhibition at 10 µM. The compound in question is Cc1c(Cl)cccc1S(=O)(=O)NCC12CC3CC(CC(C3)C1)C2
A. 20 to 60%

Q. I'd like to know its inhibition at 10 µM. The compound in question is CN(Cc1cccs1)C(=O)C(C)(c1ccccc1)c1ccccc1
A. 20 to 60%

Q. I'd like to know its inhibition at 10 µM. The compound in question is CC12CC3CC(C)(C1)CC(C(=O)NCCc1cccs1)(C3)C2
A. > 60%

Q. I'd like to know its inhibition at 10 µM. The compound in question is Cc1nc2cc(NC(=O)CC34CC5CC(CC(C5)C3)C4)ccc2s1
A. 20 to 60%

Q. I'd like to know its inhibition at 10 µM. The compound in question is Cc1ccc(Cc2noc(CC34CC5CC(CC(C5)C3)C4)n2)cc1
A. 20 to 60%

Q. I'd like to know its inhibition at 10 µM. The compound in question is CC(C(=O)NCc1cccs1)(c1ccccc1)c1ccccc1
A. 20 to 60%

Q. I'd like to know its inhibition at 10 µM. The compound in question is Cc1ccc(-c2noc(C34CC5CC(CC(C5)C3)C4)n2)cc1
A. 20 to 60%

Q. I'd like to know its inhibition at 10 µM. The compound in question is O=C(COc1ccc(-c2ccccc2)cc1)C12CC3CC(CC(C3)C1)C2
A. > 60%
